Tested on: primary human total T-cells
TEST DETAILS: T-cell activation assessed by cytokine secretion (GM-CSF, IFNγ, TNFα)
Assay type: cell-based
TEST SETTINGS: CD3 alone stimulation, 10 μM, read-out: GM-CSF secretion

MOLECULE: C[C@H](Cc1nncn1C)c1cccc(N2Cc3c(ccnc3C3CC3)C2=O)c1
fold induction at 10 µM: 2.01 to 4
--
MOLECULE: C[C@H](Cc1nncn1C)c1cccc(N2Cc3c(cc(CN4CC(C)(O)C4)cc3C(F)(F)F)C2=O)c1
fold induction at 10 µM: 2.01 to 4
--
MOLECULE: C[C@H](Cc1nncn1C)c1cccc(NC(=O)c2cccc(C(F)(F)F)n2)c1 [Compound 183a]
fold induction at 10 µM: 2.01 to 4
--
MOLECULE: Cn1cnnc1[C@@H]1C[C@@H]1c1cccc(N2Cc3c(cccc3C(F)(F)F)C2=O)c1
fold induction at 10 µM: 2.01 to 4
--
MOLECULE: C[C@H](Sc1nncn1C)c1cccc(NC(=O)c2cc(C(=O)N3CC[C@H](O)C3)ccn2)c1
fold induction at 10 µM: 2.01 to 4
--
MOLECULE: C[C@H](Cc1nncn1C)c1cccc(NC(=O)c2cccc(CCO)n2)c1
fold induction at 10 µM: 1.51 to 2
--
MOLECULE: C[C@H](Cc1nncn1C)c1cccc(N2Cc3c(cc(CN4CC[C@](C)(O)C4)cc3C(F)(F)F)C2=O)c1
fold induction at 10 µM: > 4
--
MOLECULE: Cn1cnnc1C(F)(F)[C@](C)(F)c1cccc(N2Cc3c(cc(CN4CC[C@@H](F)C4)cc3C(F)(F)F)C2=O)c1
fold induction at 10 µM: 2.01 to 4

###

System: T-cell
TEST DETAILS: CD25 cell surface staining on T-cells co-stimulated with anti-CD3 and anti-CD28 antibody (Biological Example 2)
Format: cell-based, human
TEST SETTINGS: Homo sapiens, T-cell, fold change over baseline; 1 μM Cbl-b inhibitor; primary human total T-cells; read-out: CD25 staining Anti-CD3/Anti-CD28 stimulation

COMPOUND: Cc1cc(C(=O)Nc2cccc([C@H](C)Cc3nocc3C)c2)nc(C2CC2)n1
fold induction at 1 µM: 1.01 to 1.3

COMPOUND: Cc1cc(C(=O)Nc2cccc(C3(Cc4nncn4C)COC3)c2)nc(C2CC2)n1
fold induction at 1 µM: > 1.76

COMPOUND: Cn1cnnc1CC1(c2cccc(N3Cc4c(cccc4C(F)(F)F)C3=O)c2)COC1
fold induction at 1 µM: 1.01 to 1.3

COMPOUND: C[C@H](Sc1nncn1C)c1cccc(NC(=O)c2cc3cc(OCc4ccn[nH]4)ccc3cn2)c1
fold induction at 1 µM: < 1

COMPOUND: C[C@H](Sc1nncn1C)c1cccc(NC(=O)c2cccc(C(C)(F)F)n2)c1
fold induction at 1 µM: 1.51 to 1.75

COMPOUND: C[C@H](Cc1nncn1C)c1cccc(NC(=O)c2n[nH]c3c2CCC3)c1
fold induction at 1 µM: 1.01 to 1.3

COMPOUND: C[C@@H](c1cccc(N2Cc3c(cccc3C(F)(F)F)C2=O)c1)[C@@H](O)c1nncn1C (racemic)
fold induction at 1 µM: < 1

COMPOUND: Cc1cc(C(=O)Nc2cccc([C@H](C)Cc3nncn3C)c2)nc(C(F)(F)F)n1
fold induction at 1 µM: 1.51 to 1.75

Attribution: patent US20220324835A1
